Experiment: Somatic cell toxicity assay (resazurin reduction), PK-15
Format: cell-based, porcine
Conditions: pig, PK-15 cells (porcine kidney tubular epithelial cell line); read-out: Toxic endpoint EC50, Cytotoxicity, PK-15 cells
METRIC NAME: EC50 at 3 days

| COMPOUND | READING |
| --- | --- |
| CC(C)=C[C@H]1C[C@H](C)[C@]2(CC[C@]3(C)C[C@H]4[C@H](C(=O)C[C@@]4(C)O)/C(C=O)=C\C[C@H]32)O1 [OPA, ophiobolin A] | 0.1 µg/mL |

====

Test: Cell membrane permeability assay on motile sperm cells (PI staining)
Type: cell-based, boar
Conditions: boar (pig), motile boar spermatozoa (commercial extended boar semen); at 800 ng mL^−1 to 1600 ng mL^−1, 37 °C, 2 h

| COMPOUND STRUCTURE | viability at 2 h |
| --- | --- |
| CC(C)=C[C@H]1C[C@H](C)[C@]2(CC[C@]3(C)C[C@H]4[C@H](C(=O)C[C@@]4(C)O)/C(C=O)=C\C[C@H]32)O1 | 38 to 73% |
